All figures here come from patent US20100216795A1.

# SYSTEM: SYK (Homo sapiens, UniProt P43405)
RECORDED_METRIC: IC50

Suppose we examine the compound "CC(=O)Nc1ccc(C(=O)Nc2sc(Nc3ccccc3)nc2C(N)=O)cc1" ; what IC50 value has been reported? > 300 nM

---

# SYSTEM: FLT3 (Homo sapiens)
# Sequence (P36888 27-993): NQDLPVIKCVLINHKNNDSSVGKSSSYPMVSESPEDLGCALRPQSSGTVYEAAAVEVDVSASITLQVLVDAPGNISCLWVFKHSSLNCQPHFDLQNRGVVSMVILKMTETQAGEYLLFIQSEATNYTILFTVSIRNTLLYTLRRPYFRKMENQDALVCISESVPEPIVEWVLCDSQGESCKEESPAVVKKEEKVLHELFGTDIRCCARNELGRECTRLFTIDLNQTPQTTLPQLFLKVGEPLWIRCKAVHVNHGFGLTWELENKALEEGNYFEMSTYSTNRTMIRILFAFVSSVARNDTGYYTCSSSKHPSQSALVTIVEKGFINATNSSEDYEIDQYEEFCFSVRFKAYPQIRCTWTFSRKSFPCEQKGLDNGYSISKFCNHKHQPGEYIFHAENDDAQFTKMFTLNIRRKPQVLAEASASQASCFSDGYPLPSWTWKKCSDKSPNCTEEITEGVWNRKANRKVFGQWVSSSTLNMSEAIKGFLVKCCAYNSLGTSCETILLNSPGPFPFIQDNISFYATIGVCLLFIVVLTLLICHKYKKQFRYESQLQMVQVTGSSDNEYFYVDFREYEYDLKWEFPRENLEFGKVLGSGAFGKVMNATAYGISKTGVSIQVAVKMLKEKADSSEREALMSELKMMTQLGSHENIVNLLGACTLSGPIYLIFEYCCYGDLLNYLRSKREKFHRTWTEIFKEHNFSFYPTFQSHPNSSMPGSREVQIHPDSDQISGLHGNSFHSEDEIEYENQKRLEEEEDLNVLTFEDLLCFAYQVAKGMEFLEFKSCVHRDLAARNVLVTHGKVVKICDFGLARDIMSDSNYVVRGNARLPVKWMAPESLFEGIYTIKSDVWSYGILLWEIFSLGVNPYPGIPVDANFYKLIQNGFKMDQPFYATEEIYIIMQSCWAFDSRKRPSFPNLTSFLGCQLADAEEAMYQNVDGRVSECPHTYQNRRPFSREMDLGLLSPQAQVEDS
RECORDED_METRIC: pIC50
Note on units: pIC50 is unitless, being -log10 of a concentration expressed in mol/L.

Suppose we examine the molecule CC(=O)Nc1ccc(C(=O)Nc2sc(Nc3ccccc3)nc2C(N)=O)cc1 [Compound 1] ; what pIC50 value has been reported? 7.02

---

# SYSTEM: PDGFRa (Homo sapiens, UniProt P16234)
# Sequence (P16234 24-1089): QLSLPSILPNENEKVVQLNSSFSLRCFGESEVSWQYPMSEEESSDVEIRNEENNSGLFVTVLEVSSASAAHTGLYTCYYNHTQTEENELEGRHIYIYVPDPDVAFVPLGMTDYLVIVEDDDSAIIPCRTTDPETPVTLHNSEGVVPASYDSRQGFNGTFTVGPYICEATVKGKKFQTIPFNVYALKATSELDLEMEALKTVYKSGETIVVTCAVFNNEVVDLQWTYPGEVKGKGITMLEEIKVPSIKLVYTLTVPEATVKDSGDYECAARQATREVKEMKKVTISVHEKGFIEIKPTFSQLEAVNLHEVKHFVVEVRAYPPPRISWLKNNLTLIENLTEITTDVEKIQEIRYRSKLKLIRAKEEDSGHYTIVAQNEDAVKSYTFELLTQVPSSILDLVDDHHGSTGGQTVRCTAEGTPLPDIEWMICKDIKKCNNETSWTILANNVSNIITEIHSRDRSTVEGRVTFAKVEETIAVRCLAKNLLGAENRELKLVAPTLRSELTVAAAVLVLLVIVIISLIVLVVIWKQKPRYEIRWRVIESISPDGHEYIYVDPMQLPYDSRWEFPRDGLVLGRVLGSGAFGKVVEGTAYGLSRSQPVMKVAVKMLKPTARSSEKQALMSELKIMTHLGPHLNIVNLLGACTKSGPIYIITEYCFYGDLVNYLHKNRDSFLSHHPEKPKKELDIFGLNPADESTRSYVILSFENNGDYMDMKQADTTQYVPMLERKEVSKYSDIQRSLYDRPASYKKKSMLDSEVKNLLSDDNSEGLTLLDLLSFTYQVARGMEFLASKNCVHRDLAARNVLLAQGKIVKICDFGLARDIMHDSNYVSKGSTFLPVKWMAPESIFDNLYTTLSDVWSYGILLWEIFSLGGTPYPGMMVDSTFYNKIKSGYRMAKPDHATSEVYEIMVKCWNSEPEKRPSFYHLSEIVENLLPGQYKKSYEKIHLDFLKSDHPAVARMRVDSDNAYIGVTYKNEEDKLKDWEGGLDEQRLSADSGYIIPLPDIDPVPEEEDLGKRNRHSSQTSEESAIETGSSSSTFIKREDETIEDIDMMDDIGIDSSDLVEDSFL
RECORDED_METRIC: IC50 (nM)
Express it in nM; write the number only.

Suppose we examine the compound "CC(=O)Nc1ccc(C(=O)Nc2sc(Nc3ccccc3)nc2C(N)=O)cc1" ; what IC50 value has been reported? 150

---

# SYSTEM: EphB4 (Homo sapiens, UniProt P54760)
# Sequence (P54760 16-987): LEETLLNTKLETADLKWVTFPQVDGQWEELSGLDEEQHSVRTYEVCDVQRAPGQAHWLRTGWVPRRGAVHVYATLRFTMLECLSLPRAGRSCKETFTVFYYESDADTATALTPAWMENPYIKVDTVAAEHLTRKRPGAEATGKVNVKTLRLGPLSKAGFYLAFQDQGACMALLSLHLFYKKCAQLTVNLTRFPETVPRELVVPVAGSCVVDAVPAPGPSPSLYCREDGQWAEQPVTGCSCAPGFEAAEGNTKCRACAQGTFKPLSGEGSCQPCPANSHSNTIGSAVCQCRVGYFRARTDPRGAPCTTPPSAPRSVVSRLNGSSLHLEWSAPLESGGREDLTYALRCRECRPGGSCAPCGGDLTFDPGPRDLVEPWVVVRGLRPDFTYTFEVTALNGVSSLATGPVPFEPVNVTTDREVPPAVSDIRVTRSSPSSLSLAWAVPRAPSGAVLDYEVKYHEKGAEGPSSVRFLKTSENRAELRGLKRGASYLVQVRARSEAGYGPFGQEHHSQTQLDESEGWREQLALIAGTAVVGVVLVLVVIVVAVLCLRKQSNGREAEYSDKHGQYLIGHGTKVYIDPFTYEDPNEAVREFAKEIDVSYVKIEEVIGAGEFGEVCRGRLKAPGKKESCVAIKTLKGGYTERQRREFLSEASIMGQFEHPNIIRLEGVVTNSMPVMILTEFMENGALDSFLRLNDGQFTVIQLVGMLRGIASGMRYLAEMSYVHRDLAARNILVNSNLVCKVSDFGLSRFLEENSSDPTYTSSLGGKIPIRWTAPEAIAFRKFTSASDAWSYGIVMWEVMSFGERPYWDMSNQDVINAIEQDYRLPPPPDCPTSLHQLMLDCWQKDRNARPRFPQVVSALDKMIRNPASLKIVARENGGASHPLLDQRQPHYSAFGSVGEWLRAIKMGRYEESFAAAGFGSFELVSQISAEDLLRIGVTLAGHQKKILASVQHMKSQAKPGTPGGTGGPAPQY
pIC50: −log10 of the molar value.
RECORDED_METRIC: pIC50

Suppose we examine the molecule "CC(=O)Nc1ccc(C(=O)Nc2sc(Nc3ccccc3)nc2C(N)=O)cc1" ; what pIC50 value has been reported? < 6.52

---

# SYSTEM: human TNIK (N-terminal segment, TNIK_N) (Homo sapiens, UniProt Q9UKE5)
# Construct: made in house; host or cells: Sf21 insect cells (baculovirus)
# Sequence (Q9UKE5 1-314): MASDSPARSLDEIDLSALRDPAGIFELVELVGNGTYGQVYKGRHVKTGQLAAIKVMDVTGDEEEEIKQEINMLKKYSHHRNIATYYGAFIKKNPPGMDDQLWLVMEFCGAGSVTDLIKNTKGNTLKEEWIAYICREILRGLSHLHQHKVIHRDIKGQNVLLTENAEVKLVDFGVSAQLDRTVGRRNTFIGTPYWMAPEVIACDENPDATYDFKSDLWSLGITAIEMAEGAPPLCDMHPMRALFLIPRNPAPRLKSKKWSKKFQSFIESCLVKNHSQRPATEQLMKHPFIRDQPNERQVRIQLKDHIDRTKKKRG
# PROTOCOL_SUMMARY: TNIK kinase assay (mobility shift)
# Type: biochemical
# ASSAY_SETUP: 25 μM ATP, 1 h at room temperature
# Excerpt: A cDNA encoding the N-terminal segment (TNIK_N, residues 1-314) containing the kinase domain of human TNIK (NM_015028.1) was amplified from cDNA mixture synthesized from human tissue (Biochain) by PCR using the following primers: 5′-[…]-3′ ([SEQ ID NO:1]: forward primer, the underlined nucleotides indicates the location of a EheI site); 5′-[…]-3′ ([SEQ ID NO:2]: reverse primer, the underlined nucleotides indicates the location of a NotI site). […]
Known pIC50 of a selection of molecules
Note on units: pIC50 is unitless, being -log10 of a concentration expressed in mol/L.

Consider the worked cases shown below.
{"MOLECULE_SMILES": "COc1ccc(Nc2nc(C(N)=O)c(NC(=O)c3ccc(NC(=O)CO)cc3)s2)cc1", "SYSTEM": "human TNIK (N-terminal segment, TNIK_N) (Homo sapiens, UniProt Q9UKE5)", "pIC50": 8.05}
{"MOLECULE_SMILES": "Cc1ccc(Nc2nc(C(N)=O)c(NC(=O)c3cccs3)s2)cc1", "SYSTEM": "human TNIK (N-terminal segment, TNIK_N) (Homo sapiens, UniProt Q9UKE5)", "pIC50": 7.51}

Shift focus to the following entry.
Suppose we examine the molecule "Cc1ccc(Nc2nc(C(N)=O)c(NC(=O)c3c(F)cccc3F)s2)cc1" ; what pIC50 value has been reported? 6.74

---

# SYSTEM: PAK4 (Homo sapiens, UniProt O96013)
# Sequence (O96013 whole entry): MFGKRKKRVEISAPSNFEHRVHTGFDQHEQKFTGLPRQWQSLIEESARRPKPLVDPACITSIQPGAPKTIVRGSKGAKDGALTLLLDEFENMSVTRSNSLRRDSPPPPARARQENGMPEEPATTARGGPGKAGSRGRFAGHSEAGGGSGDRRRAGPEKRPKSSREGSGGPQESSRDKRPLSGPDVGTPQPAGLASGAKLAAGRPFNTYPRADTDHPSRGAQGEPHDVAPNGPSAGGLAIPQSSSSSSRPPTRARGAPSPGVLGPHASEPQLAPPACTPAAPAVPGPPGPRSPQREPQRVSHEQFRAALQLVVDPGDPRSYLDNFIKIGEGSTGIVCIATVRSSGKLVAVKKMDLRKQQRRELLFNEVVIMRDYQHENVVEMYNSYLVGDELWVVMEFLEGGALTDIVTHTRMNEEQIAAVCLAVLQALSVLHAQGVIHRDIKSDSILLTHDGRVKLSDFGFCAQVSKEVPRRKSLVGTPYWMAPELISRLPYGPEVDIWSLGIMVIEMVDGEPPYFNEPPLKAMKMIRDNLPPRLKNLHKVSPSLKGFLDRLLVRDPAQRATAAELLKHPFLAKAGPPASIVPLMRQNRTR
pIC50: −log10 of the molar value.
RECORDED_METRIC: pIC50

Suppose we examine the molecule "CC(=O)Nc1ccc(C(=O)Nc2sc(Nc3ccccc3)nc2C(N)=O)cc1" ; what pIC50 value has been reported? < 6.52

---

# SYSTEM: CSK (Homo sapiens)
# Sequence (P41240 whole entry): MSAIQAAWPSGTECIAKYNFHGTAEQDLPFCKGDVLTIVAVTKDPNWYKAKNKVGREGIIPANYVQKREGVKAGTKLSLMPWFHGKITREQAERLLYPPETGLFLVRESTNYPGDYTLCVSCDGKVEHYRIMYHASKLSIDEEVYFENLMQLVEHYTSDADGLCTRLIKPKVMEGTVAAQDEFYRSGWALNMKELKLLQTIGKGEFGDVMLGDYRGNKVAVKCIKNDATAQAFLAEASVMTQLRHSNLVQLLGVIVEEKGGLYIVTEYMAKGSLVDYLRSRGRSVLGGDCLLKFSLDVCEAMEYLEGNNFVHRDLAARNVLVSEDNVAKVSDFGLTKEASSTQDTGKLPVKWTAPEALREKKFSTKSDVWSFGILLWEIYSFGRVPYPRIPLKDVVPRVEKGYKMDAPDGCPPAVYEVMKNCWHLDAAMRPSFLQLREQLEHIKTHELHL
pIC50: −log10 of the molar value.
RECORDED_METRIC: pIC50

Suppose we examine the compound CC(=O)Nc1ccc(C(=O)Nc2sc(Nc3ccccc3)nc2C(N)=O)cc1 [Compound 1] ; what pIC50 value has been reported? < 6.52

---

# SYSTEM: DAPK1 (Homo sapiens)
pIC50: −log10 of the molar value.
RECORDED_METRIC: pIC50

Suppose we examine the molecule "CC(=O)Nc1ccc(C(=O)Nc2sc(Nc3ccccc3)nc2C(N)=O)cc1" ; what pIC50 value has been reported? < 6.52

---

# SYSTEM: TRKA (Homo sapiens, UniProt P04629)
# Sequence (P04629 33-796): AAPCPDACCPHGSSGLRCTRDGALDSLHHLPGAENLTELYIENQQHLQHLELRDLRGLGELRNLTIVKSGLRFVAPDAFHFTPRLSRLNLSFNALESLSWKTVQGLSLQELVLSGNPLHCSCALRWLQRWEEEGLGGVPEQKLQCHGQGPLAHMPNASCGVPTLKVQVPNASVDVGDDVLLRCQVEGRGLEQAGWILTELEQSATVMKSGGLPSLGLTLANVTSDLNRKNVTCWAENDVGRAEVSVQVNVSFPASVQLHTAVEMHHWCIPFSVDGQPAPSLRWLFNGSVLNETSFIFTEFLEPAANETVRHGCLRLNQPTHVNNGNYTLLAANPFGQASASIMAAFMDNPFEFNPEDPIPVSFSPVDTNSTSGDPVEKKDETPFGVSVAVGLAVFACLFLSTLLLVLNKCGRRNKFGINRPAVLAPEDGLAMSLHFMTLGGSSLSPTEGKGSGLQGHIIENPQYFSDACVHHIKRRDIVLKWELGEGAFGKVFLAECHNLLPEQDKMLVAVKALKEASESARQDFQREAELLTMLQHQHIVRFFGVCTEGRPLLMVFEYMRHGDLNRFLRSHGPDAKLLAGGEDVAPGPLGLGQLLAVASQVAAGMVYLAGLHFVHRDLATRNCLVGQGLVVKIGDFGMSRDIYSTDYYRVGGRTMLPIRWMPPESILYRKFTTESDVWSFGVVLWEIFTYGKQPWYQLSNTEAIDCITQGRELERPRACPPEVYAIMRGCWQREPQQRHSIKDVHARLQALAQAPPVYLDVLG
pIC50: −log10 of the molar value.
RECORDED_METRIC: pIC50

Suppose we examine the molecule "CC(=O)Nc1ccc(C(=O)Nc2sc(Nc3ccccc3)nc2C(N)=O)cc1" ; what pIC50 value has been reported? < 6.52

---

# SYSTEM: human TNIK (N-terminal segment, TNIK_N) (Homo sapiens, UniProt Q9UKE5)
# Construct: made in house; host or cells: Sf21 insect cells (baculovirus)
# PROTOCOL_SUMMARY: TNIK kinase assay (mobility shift)
# Type: biochemical
# ASSAY_SETUP: 25 μM ATP, 1 h at room temperature
# Description: A cDNA encoding the N-terminal segment (TNIK_N, residues 1-314) containing the kinase domain of human TNIK (NM_015028.1) was amplified from cDNA mixture synthesized from human tissue (Biochain) by PCR using the following primers: 5′-[…]-3′ ([SEQ ID NO:1]: forward primer, the underlined nucleotides indicates the location of a EheI site); 5′-[…]-3′ ([SEQ ID NO:2]: reverse primer, the underlined nucleotides indicates the location of a NotI site). […]
Known IC50 of a selection of compounds
Provide a numeric answer, followed by its unit.

{"COMPOUND": "NC(=O)c1nc(Nc2ccccc2)sc1NC(=O)Cc1cccs1 [Compound 6]", "IC50": "280 nM"}
{"COMPOUND": "COc1ccc(Nc2nc(C(N)=O)c(NC(=O)c3ccc(OC)cc3)s2)cc1 [Compound A46]", "IC50": "16 nM"}
{"COMPOUND": "COc1ccc(Nc2nc(C(N)=O)c(NC(=O)c3ccc(NCCO)cc3)s2)cc1 [Compound A23]", "IC50": "8 nM"}
{"COMPOUND": "COc1ccc(Nc2nc(C(N)=O)c(NC(=O)c3ccc(NCCc4ccncc4)cc3)s2)cc1 [Compound A55]", "IC50": "10 nM"}
{"COMPOUND": "COc1ccc(Nc2nc(C(N)=O)c(NC(=O)c3ccc(N)c(N)c3)s2)cc1 [Compound A103]", "IC50": "10 nM"}

Suppose we examine the compound COc1ccc(C(=O)Nc2sc(Nc3cncnc3)nc2C(N)=O)cc1 [Compound A69] ; what IC50 value has been reported? 7 nM

Proceed to Cc1cccc(C(=O)Nc2sc(Nc3ccccc3)nc2C(N)=O)c1 [Compound 2] 40 nM

---

# SYSTEM: human TNIK (N-terminal segment, TNIK_N) (Homo sapiens, UniProt Q9UKE5)
# Construct: made in house; host or cells: Sf21 insect cells (baculovirus)
# PROTOCOL_SUMMARY: TNIK kinase assay (mobility shift)
# Assay type: biochemical
# ASSAY_SETUP: 25 μM ATP, 1 h at room temperature
RECORDED_METRIC: IC50 (nM)
Express it in nM; write the number only.

Consider the worked cases shown below.
{"MOLECULE": "COc1ccc(Nc2nc(C(N)=O)c(NC(=O)c3ccc(NC(C)=O)cc3)s2)cc1 [Compound A11]", "SYSTEM": "human TNIK (N-terminal segment, TNIK_N) (Homo sapiens, UniProt Q9UKE5)", "VALUE_UNIT": "nM", "IC50": 14}
{"MOLECULE": "COCCNc1ccc(C(=O)Nc2sc(Nc3ccc(OC)cc3)nc2C(N)=O)cc1 [Compound A31]", "SYSTEM": "human TNIK (N-terminal segment, TNIK_N) (Homo sapiens, UniProt Q9UKE5)", "VALUE_UNIT": "nM", "IC50": 10}
{"MOLECULE": "NC(=O)c1nc(Nc2ccccc2)sc1NC(=O)c1ccccc1F [Compound 3]", "SYSTEM": "human TNIK (N-terminal segment, TNIK_N) (Homo sapiens, UniProt Q9UKE5)", "VALUE_UNIT": "nM", "IC50": 19}
{"MOLECULE": "CC(C)CC(=O)Nc1sc(Nc2ccccc2)nc1C(N)=O [Compound 7]", "SYSTEM": "human TNIK (N-terminal segment, TNIK_N) (Homo sapiens, UniProt Q9UKE5)", "VALUE_UNIT": "nM", "IC50": 180}
{"MOLECULE": "COc1ccc(C(=O)Nc2sc(Nc3ccncc3)nc2C(N)=O)cc1 [Compound A47]", "SYSTEM": "human TNIK (N-terminal segment, TNIK_N) (Homo sapiens, UniProt Q9UKE5)", "VALUE_UNIT": "nM", "IC50": 3}

Suppose we examine the molecule CN1CCN(c2ccc(C(=O)Nc3sc(Nc4cccnc4)nc3C(N)=O)cc2)CC1 [Compound A74] ; what IC50 value has been reported? 7

Proceed to COc1ccc(C(=O)Nc2sc(Nc3ccc(C)cc3)nc2C(N)=O)cc1OC [Compound 14] 57

Proceed to COc1ccc(Nc2nc(C(N)=O)c(NC(=O)c3ccc(N4CCC(CO)CC4)cc3)s2)cc1 [Compound A43] 13

Proceed to Cc1ccc(Nc2nc(C(N)=O)c(NC(=O)c3ccccc3F)s2)cc1 [Compound 9] 68
